The binders listed here are annotated with their PSV neutralization IC50.
Measured Target: SARS-CoV-2 spike on pseudovirus or live virus (USA-WA1/2020, WT) (SARS-CoV-2, UniProt P0DTC2 14-1273)
Assay Overview: cell-based or functional assay

Binder	Unit Of Measurement	PSV neutralization IC50
L12.bP12E05 (antibody, V domains shown, human IgG1) VH: EVQLVQSGAEVKKPGASVKVTCKTSGYIFSGYYMHWVRQVPGQGLEWMGWISPDSGATNYAQKFQGRVTMTRDTSITTSYVELTWLKSDDTAVYYCARGPRYSGTYFDFWGQGTLVTVSS VL: QAVVTQPASVSGSPGQSLTISCTGTSSDIGGFNYVSWYQQHPGKAPKLMIFDVSKRPSGVPNRFSGSKSGNTASLTISGLQAEDEGDYYCSSYTISSAQVFGGGTKLTVL	µg/mL	0.075
L12.cP08A09 (antibody, V domains shown, human IgG1) VH: QVQLVQSGAEVKKPGASVKVSCKASGYIYSGYYMHWVRQAPGQGLEWMGWISPDSGGTNYAQRFQGRVTMTRDTSTTTAYMELSRLRSDDTAVYYCARGPRYSGTYFDYWGQGTLVTVSS VL: QSALTQPASVSGSPGQSITISCTGTSSDVGGYNYVSWYQQHPDKAPKLMIYDVSNRPSGVSNRFSGSKSGNTASLTISGLQAEDEADYYCSSYTSGSTQVFGGGTKLTVL	µg/mL	0.382
L12.cP08D07 (antibody, V domains shown, human IgG1) VH: QVQLQESGPGLVKPSETLSLTCTVSGGSISSSSYYWGWIRQPPGKGLEWIGSIYYSGSTYYNPSLKSRVTISVDTSKNQFSLKLSSVTAADTAVYYCARQGDCSTTSCAYDYWGQGTLVTVSS VL: SYELTQPPSVSVSPGQTARITCSGDALPKQYAYWYQQKPGQAPVLVIYKDSERPSGIPERFSGSSSGTTATLTISGVQAEDEADYYCQSADSSGTYLVVFGGGTKLAVL	µg/mL	1.81
L12.bP11C10 (antibody, V domains shown, human IgG1) VH: QVQLVQSGAEVKKPGASVKVSCKASGYIFSGYYMHWVRQAPGQGLEWMGWISPDSGGTNYAQKFQGRVTMTRDTSITTGYMELSGLRSDDTAVYYCARGPRYSGTYFDYWGQGTLVTISS VL: QSALTQPTSVSGSPGQSITISCTGTSSDVGGYNYVSWYQQHPGKAPKLIIYDVSNRPSGVSNRFSGSKSGNTASLTISGLQAEDEADYYCSSYTVSSTQVFGGGTKLTVL	µg/mL	0.092
L12.cP08D10 (antibody, V domains shown, human IgG1) VH: EVQLVQSGAEVKKPGASVKVSCKASGYIFSGYYMHWVRQAPGQGLEWMGWISPDSGGTNYAQNFQGRVTMTRDTSISTGYMELSRLRSDDTAMYYCARGPRYSGTYFDYWGQGVLVTVSS VL: QSVLTQPASVSGSPGQSITISCTGTSSDVGGYNYVSWYQQHPGKVPKLMIYDVSNRPSGVSNRFSGSKSGNTASLTISGLQAEDEADYYCSSYTSSSAQVFGGGTKLTVL	µg/mL	4.3

Reference source for all entries: patent US20230357364A1
